# target_or_system: full-length human PIKFYVE (Homo sapiens (Human), UniProt Q9Y2I7, L932S/Q1183K/Q995L/S1033A/S696N/T998S)
# Sequence (Q9Y2I7 whole entry S696N/L932S/Q995L/T998S/S1033A/Q1183K): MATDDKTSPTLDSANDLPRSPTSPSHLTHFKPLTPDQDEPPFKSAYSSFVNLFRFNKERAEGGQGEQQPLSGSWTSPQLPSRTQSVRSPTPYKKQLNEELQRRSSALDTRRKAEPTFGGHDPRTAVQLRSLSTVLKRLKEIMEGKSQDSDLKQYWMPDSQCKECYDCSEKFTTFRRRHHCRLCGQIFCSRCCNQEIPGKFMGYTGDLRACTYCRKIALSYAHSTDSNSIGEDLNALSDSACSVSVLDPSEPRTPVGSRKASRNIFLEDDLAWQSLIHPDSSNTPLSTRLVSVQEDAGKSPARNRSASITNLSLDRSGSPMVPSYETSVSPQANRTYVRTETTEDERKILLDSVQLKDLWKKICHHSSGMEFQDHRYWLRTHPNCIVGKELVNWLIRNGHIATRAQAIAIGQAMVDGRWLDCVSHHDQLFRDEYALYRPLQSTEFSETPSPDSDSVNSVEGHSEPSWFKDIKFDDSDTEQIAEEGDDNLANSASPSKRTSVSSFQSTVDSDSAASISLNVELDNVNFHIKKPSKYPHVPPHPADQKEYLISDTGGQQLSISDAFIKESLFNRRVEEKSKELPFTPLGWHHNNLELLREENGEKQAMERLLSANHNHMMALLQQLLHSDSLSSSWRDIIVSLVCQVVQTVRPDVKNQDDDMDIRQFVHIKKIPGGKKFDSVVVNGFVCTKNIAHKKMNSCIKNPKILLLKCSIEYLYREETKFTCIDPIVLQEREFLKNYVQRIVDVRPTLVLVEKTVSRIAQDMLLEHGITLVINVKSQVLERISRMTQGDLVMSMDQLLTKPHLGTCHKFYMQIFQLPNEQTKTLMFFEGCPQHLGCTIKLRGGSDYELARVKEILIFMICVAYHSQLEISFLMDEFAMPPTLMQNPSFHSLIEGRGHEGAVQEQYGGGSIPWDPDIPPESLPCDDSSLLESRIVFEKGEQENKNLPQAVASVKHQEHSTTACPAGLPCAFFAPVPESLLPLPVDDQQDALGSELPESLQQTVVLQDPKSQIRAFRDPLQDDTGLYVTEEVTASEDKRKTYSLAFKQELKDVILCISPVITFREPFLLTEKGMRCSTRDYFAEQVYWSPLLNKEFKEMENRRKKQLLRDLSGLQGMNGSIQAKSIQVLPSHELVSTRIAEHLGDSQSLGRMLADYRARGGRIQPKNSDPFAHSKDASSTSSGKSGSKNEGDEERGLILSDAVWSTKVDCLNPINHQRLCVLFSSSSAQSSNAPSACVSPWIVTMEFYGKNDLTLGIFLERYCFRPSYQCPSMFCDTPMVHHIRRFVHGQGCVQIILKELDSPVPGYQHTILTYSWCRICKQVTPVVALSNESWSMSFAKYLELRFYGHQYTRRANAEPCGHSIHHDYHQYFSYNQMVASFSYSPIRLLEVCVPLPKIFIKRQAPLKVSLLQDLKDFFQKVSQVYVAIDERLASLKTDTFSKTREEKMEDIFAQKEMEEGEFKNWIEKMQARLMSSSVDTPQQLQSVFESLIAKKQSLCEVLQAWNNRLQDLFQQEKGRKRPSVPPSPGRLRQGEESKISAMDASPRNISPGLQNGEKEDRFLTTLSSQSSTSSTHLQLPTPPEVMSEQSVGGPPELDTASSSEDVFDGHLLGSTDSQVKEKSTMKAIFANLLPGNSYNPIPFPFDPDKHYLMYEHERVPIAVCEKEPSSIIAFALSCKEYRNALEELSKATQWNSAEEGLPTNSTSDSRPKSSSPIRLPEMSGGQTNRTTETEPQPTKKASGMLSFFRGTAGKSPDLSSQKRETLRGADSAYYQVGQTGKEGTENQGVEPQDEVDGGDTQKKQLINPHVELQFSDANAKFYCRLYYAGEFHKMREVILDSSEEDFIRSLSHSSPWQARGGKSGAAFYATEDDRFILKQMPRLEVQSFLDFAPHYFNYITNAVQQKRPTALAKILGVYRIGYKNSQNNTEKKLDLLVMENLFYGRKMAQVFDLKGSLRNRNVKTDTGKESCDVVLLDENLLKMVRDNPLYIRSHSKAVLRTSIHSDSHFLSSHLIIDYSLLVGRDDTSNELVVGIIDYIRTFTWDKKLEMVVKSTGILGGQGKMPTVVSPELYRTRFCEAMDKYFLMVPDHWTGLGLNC
# assay_procedure: PIKfyve biochemical assay (ADP-Glo Kinase assay, Carna Biosciences)
# setup_conditions: class symbols
Examples of compounds with documented IC50 follow.
experimental_readout: IC50

>>> measured_result("CN1CCN(c2cc(N3CCOCC3)n3nc(-c4ccncc4)cc3n2)CC1c1ccccc1 (stereo not drawn) [Compound 38]")
"1 to 10 µM"
>>> measured_result("c1cc(-c2cc3nc(-n4ncc5c4CCCC5)cc(N4CCOCC4)n3n2)ccn1 [Compound 86]")
"1 to 10 µM"
>>> measured_result("C1=C(c2cn(-c3cc(N4CCOCC4)n4nc(-c5ccncc5)cc4n3)cn2)CNCC1 [Compound 17]")
"1 to 10 µM"
>>> measured_result("Fc1cccc(Oc2ncccc2-c2cc(N3CCOCC3)n3nc(-c4ccncc4)cc3n2)c1 [Compound 137]")
"0.1 to 1 µM"
>>> measured_result("Cc1ccccc1-c1cc(O)n(-c2cc(N3CCOCC3)n3nc(-c4ccncc4)cc3n2)n1 [Compound 46]")
"0.01 to 0.1 µM"
>>> measured_result("c1ccc(C2CCN(c3cc(N4CCOCC4)n4nc(-c5ccncc5)cc4n3)C2)cc1 (stereo not drawn) [Compound 33]")
"1 to 10 µM"
>>> measured_result("Oc1cc(-c2ccccc2)nn1-c1cc(N2CCOCC2)n2nc(-c3ccncc3)cc2n1 [Compound 51]")
"< 0.01 µM"
>>> measured_result("c1ccc(-n2ccc(-c3cc(N4CCOCC4)n4nc(C5CCCO5)cc4n3)n2)cc1 (stereo not drawn) [Compound 96]")
"0.1 to 1 µM"
>>> measured_result("NC(=O)c1cc(N2CCOCC2)n2nc(-c3ccncc3)cc2n1 [Compound 102]")
"1 to 10 µM"
>>> measured_result("OCCc1ccn(-c2cc(N3CCOCC3)n3nc(-c4ccncc4)cc3n2)n1 [Compound 80]")
"0.1 to 1 µM"
>>> measured_result("c1ccc(-n2ccc(-c3cc(N4CCOCC4)n4nc(-c5ccncc5)cc4n3)n2)cc1 [Compound 14]")
"0.01 to 0.1 µM"
>>> measured_result("O=C(CCCc1cc(N2CCOCC2)n2nc(-c3ccncc3)cc2n1)c1ccccc1 [Compound 113]")
"0.1 to 1 µM"
>>> measured_result("c1ccc(Oc2ncccc2-c2cc(N3CCOCC3)n3nc(-c4ccncc4)cc3n2)cc1 [Compound 42]")
"0.1 to 1 µM"
>>> measured_result("O=C(/C=C/c1ccccc1)c1cc(N2CCOCC2)n2nc(-c3ccncc3)cc2n1 [Compound 114]")
"1 to 10 µM"
>>> measured_result("CN1CCC(c2cc(O)n(-c3cc(N4CCOCC4)n4nc(-c5ccncc5)cc4n3)n2)CC1 [Compound 56]")
"0.1 to 1 µM"
>>> measured_result("OCC(O)c1cc2nc(-n3ccc(-c4ccccc4)n3)cc(N3CCOCC3)n2n1 (stereo not drawn) [Compound 144]")
"0.01 to 0.1 µM"
>>> measured_result("Oc1cc(-c2ccccc2F)nn1-c1cc(N2CCOCC2)n2nc(-c3ccncc3)cc2n1 [Compound 53]")
"0.01 to 0.1 µM"
>>> measured_result("Oc1c2c(nn1-c1cc(N3CCOCC3)n3nc(-c4ccncc4)cc3n1)CCCC2 [Compound 55]")
"0.1 to 1 µM"
>>> measured_result("c1cc(-c2cc3nc(-n4ccc(C5CCNCC5)n4)cc(N4CCOCC4)n3n2)ccn1 [Compound 62]")
"0.1 to 1 µM"
>>> measured_result("c1cncc(-n2ccc(-c3cc(N4CCOCC4)n4nc(-c5ccncc5)cc4n3)n2)c1 [Compound 13]")
"0.01 to 0.1 µM"
>>> measured_result("O=c1c(-c2ccccc2)c(-c2ccccc2)cnn1-c1cc(N2CCOCC2)n2nc(-c3ccncc3)cc2n1 [Compound 6]")
"1 to 10 µM"
>>> measured_result("Oc1cc(-c2cc(N3CCOCC3)n3nc(-c4ccncc4)cc3n2)nn1-c1cccnc1 [Compound 58]")
"0.01 to 0.1 µM"
>>> measured_result("c1cc(-c2cc3nc(-n4ccc(C5CNC5)n4)cc(N4CCOCC4)n3n2)ccn1 [Compound 73]")
"0.1 to 1 µM"
>>> measured_result("CC(C)c1cc(O)n(-c2cc(N3CCOCC3)n3nc(-c4ccncc4)cc3n2)n1 [Compound 54]")
"0.1 to 1 µM"
>>> measured_result("c1ccc(-c2ccn(-c3cc(N4CCOCC4)n4nc(-c5ccncc5)cc4n3)n2)nc1 [Compound 70]")
"0.1 to 1 µM"
>>> measured_result("CN1CCCC(c2ccn(-c3cc(N4CCOCC4)n4nc(-c5ccncc5)cc4n3)n2)C1 (stereo not drawn) [Compound 68]")
"0.1 to 1 µM"
>>> measured_result("O=C(/C=C/c1cc(N2CCOCC2)n2nc(-c3ccncc3)cc2n1)c1ccccc1 [Compound 109]")
"1 to 10 µM"
>>> measured_result("c1ccc(C2CC(c3cc(N4CCOCC4)n4nc(-c5ccncc5)cc4n3)CN2)cc1 (stereo not drawn) [Compound 112]")
"1 to 10 µM"
>>> measured_result("O=C1CCC(c2ccccc2)CN1c1cc(N2CCOCC2)n2nc(-c3ccncc3)cc2n1 (stereo not drawn) [Compound 26]")
"1 to 10 µM"
>>> measured_result("CCOC(=O)Cc1cc(N2CCOCC2)n2nc(-c3ccncc3)cc2n1 [Compound 133]")
"1 to 10 µM"
>>> measured_result("COc1cccc(-c2ccn(-c3cc(N4CCOCC4)n4nc(C5CCCO5)cc4n3)n2)c1 (stereo not drawn) [Compound 93]")
"0.01 to 0.1 µM"
>>> measured_result("c1cc(-c2cc3nc(-n4cc5c(n4)CCOC5)cc(N4CCOCC4)n3n2)ccn1 [Compound 89]")
"0.1 to 1 µM"
>>> measured_result("Oc1cc(-c2cncnc2)nn1-c1cc(N2CCOCC2)n2nc(-c3ccncc3)cc2n1 [Compound 44]")
"0.1 to 1 µM"
